PBM binding z-score for assorted sequences
# System: LXRa homodimer (NR concentration 270 nM)
# EXPERIMENTAL DETAILS: PBM binding z-score (relative to random genomic background probes); higher = stronger binding; sequences stand for … in GC…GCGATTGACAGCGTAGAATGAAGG

Example cases with answers are listed next.
CTAACTAGGTCAAAGGACAGTGAAAGGCGACGTA    0.132
TTACCAAGGTGAAAGGTCGTTGAAGCACGCCTTG    0.16
CGAACTAGGTCAACGGACAGTGAAAGGCGACGTA    -0.117
ATCGAAAGGTCGAAGGTGAGTCTACCCACCCGAA    -0.0971
TCGAGTAGGTTCCGGGGGCATTCAGGGATGAAGA    0.316

Please examine the following record next.
[in] Give the measured PBM binding z-score of ATATGGAGGTTAGGGTCATTCAGAAAGTAGGGAA .
[out] 1.34

###

# Test system: VDR:RXRa (NR concentration 270 nM, RXRa partner concentration 90 nM)
# EXPERIMENTAL DETAILS: PBM binding z-score (relative to random genomic background probes); higher = stronger binding; sequences stand for … in GC…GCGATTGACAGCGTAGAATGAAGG
ATTRIBUTE MEASURED: PBM binding z-score
Give a plain numeric answer without units written out.

CGAACTAGGTCAAAGGACAGTAAAAGGCGACGTA    1.55
CGAACTAGGTCACCCGGACAGTGAAGAGGTTGGA    2.69

Please examine the following record next.
[in] Give the measured PBM binding z-score of CCTGGCAGGCCAGGGTCACTCAAGCATTTCGCTT .
[out] 2.52

###

PBM binding z-score for assorted sequences
# System: THRa:RXRa (NR concentration 90 nM, RXRa partner concentration 90 nM)
# EXPERIMENTAL DETAILS: PBM binding z-score (relative to random genomic background probes); higher = stronger binding; sequences stand for … in GC…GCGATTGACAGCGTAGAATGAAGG
Give a plain numeric answer without units written out.

Example cases with answers are listed next.
CTATGTAGGTTAAGGGGGTCATTGAGTTTGAAAG    4.01
ATATGTAGGTTACGTCCGGGTCATTCAGGCTATG    4.01

[in] Give the measured PBM binding z-score of TCTCGGAGGACACGAAAGGGCAGAGCTCGACATC .
[out] 1.76

[in] Give the measured PBM binding z-score of AGTCAAAGTTCAGTAGGTAACGTAAGATTCAGCT .
[out] 0.91

###

# System: PPARg:RXRa 90nM:30nM, anti-RXR (NR concentration 90 nM, RXRa partner concentration 30 nM)
# EXPERIMENTAL DETAILS: PBM binding z-score (relative to random genomic background probes); higher = stronger binding; sequences stand for … in GC…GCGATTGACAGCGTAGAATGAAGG
I would appreciate it if you labelled entries 1.0 when PBM binding z-score is 2 or higher, otherwise 0.0.

[in] Is the recorded value of PBM binding z-score equal to or greater than 2 for this sequence? TAGCCTAGGTCAAGCGGGCCAGTATAGTGTCGGC
[out] 0.0

[in] Is the recorded value of PBM binding z-score equal to or greater than 2 for this sequence? CGAACTAGGTCAATGGACAGTGAAAGGCGACGTA
[out] 1.0

[in] Is the recorded value of PBM binding z-score equal to or greater than 2 for this sequence? CCCACTGGGCCATTCAGAGGTCATTGATCATATG
[out] 1.0

[in] Is the recorded value of PBM binding z-score equal to or greater than 2 for this sequence? CGTCCAAGGTCAAGGTGAGTGAAAGAGACTCGAA
[out] 1.0

[in] Is the recorded value of PBM binding z-score equal to or greater than 2 for this sequence? CCGAGTAGGTTACGCGGGGGCATTCAGTGCGAAT
[out] 1.0

[in] Is the recorded value of PBM binding z-score equal to or greater than 2 for this sequence? CCGAGTAAGTTACGAGGGGGCATTCAGTGCGAAT
[out] 0.0

[in] Is the recorded value of PBM binding z-score equal to or greater than 2 for this sequence? CGTCCAAGGTCCATGCTAGGTCAGTGAAAGCATT
[out] 0.0

[in] Is the recorded value of PBM binding z-score equal to or greater than 2 for this sequence? ATATTTAGGTTAGGGTCATTCAGAAAGTAGGGAA
[out] 1.0

[in] Is the recorded value of PBM binding z-score equal to or greater than 2 for this sequence? CCTACTGGGCCAAAACGGTCATTGATGCCGATAA
[out] 0.0

[in] Is the recorded value of PBM binding z-score equal to or greater than 2 for this sequence? ATATGTAGGTTAGGGTGATTCAGAAAGTAGGGAA
[out] 1.0

[in] Is the recorded value of PBM binding z-score equal to or greater than 2 for this sequence? TCTAGTTCGTCACGGAGGTCACACACGACGGGTA
[out] 1.0

[in] Is the recorded value of PBM binding z-score equal to or greater than 2 for this sequence? TAGCCAAGGTCATTCAGGGGCCAGTATAGAAAGC
[out] 1.0

[in] Is the recorded value of PBM binding z-score equal to or greater than 2 for this sequence? ATATGTAGGTTAGGGTCATTCCGAAAGTAGGGAA
[out] 1.0

[in] Is the recorded value of PBM binding z-score equal to or greater than 2 for this sequence? TCATATAGGTAATAGGTGAAAGTCGGTGTGGTAA
[out] 1.0

[in] Is the recorded value of PBM binding z-score equal to or greater than 2 for this sequence? CCTAGCAGACCAATCTGGGTCACTCAAGGCTTGA
[out] 0.0

[in] Is the recorded value of PBM binding z-score equal to or greater than 2 for this sequence? CTATGTAGGTTAAGGGGGTCATTCCGTTTGAAAG
[out] 1.0

[in] Is the recorded value of PBM binding z-score equal to or greater than 2 for this sequence? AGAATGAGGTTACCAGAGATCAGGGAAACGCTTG
[out] 0.0

Attribution: the supplement of paper PMC6555819
